All values here come from ChEMBL document CHEMBL3507680.

Experiment: Human HepG2 cell viability assay in 384 well format
Assay type: toxicity, cell-based
Design: dose 125 nL, time 70.5 hour; concentration not given beside the values
Details: HepG2 cells, read-out: Inhibition
Measured cytotoxicity at 70.5 h values are reported for all entries that follow.

Molecule	cytotoxicity at 70.5 h
Cc1nc[nH]c1-c1nccn1CCN(C)S(C)(=O)=O	3.1%
Fc1ccc(CN2CCO[C@H]3[C@H](OCCN4CCCC4)CC[C@@H]32)cc1	-5.14%
O=C(c1ccc[nH]1)N1CCc2ccc(S(=O)(=O)N3CCOCC3)cc2C1	3.25%
COC(=O)CC1c2cccnc2C(=O)N1Cc1ccccc1 (stereo unspecified)	-3.32%
CC(=O)NCc1ccc(S(=O)(=O)NC(=O)c2ccc3c(c2)COC3)s1	0.101%
COC(=O)[C@@H]1Cc2ncn(C(C)C)c2CN1S(=O)(=O)Cc1ccccc1	-6.37%
COCCCN(C)c1ncccc1I	8.68%
COc1cc(Oc2ccc(C(N)=O)cn2)ccc1CN1CCCC1	-6.89%
N#Cc1cnn(C(=O)COc2ccccc2F)c1N	1.04%
Cc1cc(NCCC(=O)NC2CCCC2)nc(-c2ccncc2)n1	0.777%
NC(=O)CN1CC(O)c2ccccc2S1(=O)=O (stereo unspecified)	-9.19%
COCCNc1cc(C2CCCNC2)ccn1 (stereo unspecified)	-7.3%
Cc1cc(NCCNS(=O)(=O)c2cccc(Cl)c2)nc(C)n1	-1%
CCc1cnc(CN(C)C2CCN(CC3CCN(C(C)=O)CC3)C2)o1 (stereo unspecified)	10%
Cc1ccc(OC2(C(=O)O)CCN(C(=O)c3cc(C)oc3C)CC2)cn1	4.69%
CCOc1ncccc1NC(=O)N1CCc2ccccc2C1	-12%
